molecular target: electric eel AChE (eeAChE) (Electrophorus electricus, UniProt O42275)
Sequence (O42275 24-633): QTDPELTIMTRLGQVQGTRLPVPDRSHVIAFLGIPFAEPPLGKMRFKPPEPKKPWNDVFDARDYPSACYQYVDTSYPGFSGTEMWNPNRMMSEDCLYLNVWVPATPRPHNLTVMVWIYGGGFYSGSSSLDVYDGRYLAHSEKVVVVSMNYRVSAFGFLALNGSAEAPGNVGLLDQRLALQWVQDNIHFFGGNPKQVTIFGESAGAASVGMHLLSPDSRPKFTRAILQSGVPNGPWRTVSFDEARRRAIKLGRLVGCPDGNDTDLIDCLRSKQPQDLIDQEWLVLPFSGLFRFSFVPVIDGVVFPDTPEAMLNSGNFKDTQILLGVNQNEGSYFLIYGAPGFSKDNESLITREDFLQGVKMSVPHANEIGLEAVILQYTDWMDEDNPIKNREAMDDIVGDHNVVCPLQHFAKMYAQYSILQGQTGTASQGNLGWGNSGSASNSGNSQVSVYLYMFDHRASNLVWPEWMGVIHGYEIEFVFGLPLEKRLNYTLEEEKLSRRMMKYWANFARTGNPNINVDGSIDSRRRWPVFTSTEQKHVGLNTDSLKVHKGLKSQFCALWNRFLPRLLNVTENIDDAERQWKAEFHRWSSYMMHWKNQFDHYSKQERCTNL
Label t when IC50 is strictly below 9 µM; at or above that, label f.

Q: Given COc1cc2c(cc1OC)C(=O)C(C[C@H]1CCN([C@@H](C)c3ccccc3)[C@H](C)C1)C2 (stereo partly drawn) [2R,4S-4+4’c] , is recorded IC50 strictly lower than 9 µM?
A: f

Q: Please check: IC50 for COc1cc2c(cc1OC)C(=O)C(CC1CCN([C@@H](C)c3ccccc3)CC1)C2 (some centres unmarked) [19+19’] , strictly under 9 µM or not?
A: t

Q: Below 9 µM on IC50? Entry COc1cc2c(cc1OC)C(=O)C(C[C@H]1CCN([C@@H](C)c3ccccc3)[C@@H](C)C1)C2 (stereo partly drawn) [2S,4S-4+4’a]
A: t

Q: Check if IC50 falls below 9 µM for COc1cc2c(cc1OC)C(=O)C(C[C@@H]1CCN([C@@H](C)c3ccccc3)[C@H](C)C1)C2 (stereo partly drawn) [2R,4R-4+4’d] .
A: f

src = paper PMC7017409
